# credit: ChEMBL document CHEMBL1208787

System: Rattus norvegicus
experiment: Hepatotoxicity in po dosed rat assessed as effect on serum SGPT level (reference value: 32.46 +/- 0.76 U/mL)
Assay type: toxicity, organism-based
run conditions: in vivo
Parameter Activity: see the listing below.

Field: example entries. Status: answers known.
> print(dat)
                                   compound  endpoint    reported
1               NNC(=O)c1ccncc1 [ISONIAZID]  Activity  40.21 U/ml
2  CC(C)Cc1ccc(C(C)C(=O)O)cc1 (centres undefined) [IBUPROFEN]  Activity  34.26 U/ml
3       Clc1ccc(-c2nnc(-c3ccncc3)o2)c(Cl)c1  Activity  28.67 U/ml

Please find the next compound below.
GET /value?item= `O=[N+]([O-])c1ccc(-c2nn3c(-c4ccncc4)nnc3s2)cc1` &field=Activity returns 29.34 U/ml
